- Test system: Staphylococcus aureus SAU.399 (ATCC 43300), Methicillin and Oxacillin Resistant
- Type: cell-based
- condition label: ATCC 43300
endpoint: Sa399 MIC (µg/mL)
Give your result in µg/mL as a bare value.

CCCC1CCC(c2ccc(C(=O)N[C@@H](Cc3c[nH]c4ccccc34)C(=O)N[C@H](CC(N)=O)C(=O)N[C@@H](CC(=O)O)C(=O)N[C@@H]3C(=O)NCC(=O)N[C@@H](CCCN)C(=O)N[C@@H](CC(=O)O)C(=O)N[C@H](C)C(=O)N[C@@H](CC(=O)O)C(=O)NCC(=O)N[C@H](CO)C(=O)N[C@@H]([C@H](C)CC(=O)O)C(=O)N[C@@H](CC(=O)c4ccccc4N)C(=O)O[C@@H]3C)cc2)CC1 (single isomer, unassigned) [53 isomer I]    0.125

Would you please give the reported Sa399 MIC of CCCCCCCCCCCCC(=O)N[C@@H](Cc1c[nH]c2ccccc12)C(=O)N[C@H](CC(N)=O)C(=O)N[C@@H](CC(=O)O)C(=O)N[C@@H]1C(=O)NCC(=O)N[C@@H](CCCN)C(=O)N[C@@H](CC(=O)O)C(=O)N[C@H](C)C(=O)N[C@@H](CC(=O)O)C(=O)NCC(=O)N[C@H](CO)C(=O)N[C@@H]([C@H](C)CC(=O)O)C(=O)N[C@@H](CC(=O)c2ccccc2N)C(=O)O[C@@H]1C [Compound 5] with Staphylococcus aureus SAU.399 (ATCC 43300), Methicillin and Oxacillin Resistant?
0.5

Write down measured Sa399 MIC (Staphylococcus aureus SAU.399 (ATCC 43300), Methicillin and Oxacillin Resistant) for this molecule. CCCCCCC1CCC(c2ccc(C(=O)N[C@@H](Cc3c[nH]c4ccccc34)C(=O)N[C@H](CC(N)=O)C(=O)N[C@@H](CC(=O)O)C(=O)N[C@@H]3C(=O)NCC(=O)N[C@@H](CCCN)C(=O)N[C@@H](CC(=O)O)C(=O)N[C@H](C)C(=O)N[C@@H](CC(=O)O)C(=O)NCC(=O)N[C@H](CO)C(=O)N[C@@H]([C@H](C)CC(=O)O)C(=O)N[C@@H](CC(=O)c4ccccc4N)C(=O)O[C@@H]3C)cc2)CC1 (single isomer, unassigned) [54 isomer II]
1

Provide Sa399 MIC, system Staphylococcus aureus SAU.399 (ATCC 43300), Methicillin and Oxacillin Resistant, entry C[C@H](CC(=O)O)[C@@H]1NC(=O)[C@@H](CO)NC(=O)CNC(=O)[C@H](CC(=O)O)NC(=O)[C@@H](C)NC(=O)[C@H](CC(=O)O)NC(=O)[C@H](CCCN)NC(=O)CNC(=O)[C@@H](NC(=O)[C@H](CC(=O)O)NC(=O)[C@@H](CC(N)=O)NC(=O)[C@H](Cc2c[nH]c3ccccc23)NC(=O)CCCCCC2CCCCC2)[C@@H](C)OC(=O)[C@H](CC(=O)c2ccccc2N)NC1=O [Compound 26]
0.5

Lab note: Staphylococcus aureus SAU.399 (ATCC 43300), Methicillin and Oxacillin Resistant assay, enter Sa399 MIC for CCCCCCCCC(=O)N[C@@H](Cc1c[nH]c2ccccc12)C(=O)N[C@H](CC(N)=O)C(=O)N[C@@H](CC(=O)O)C(=O)N[C@@H]1C(=O)NCC(=O)N[C@@H](CCCN)C(=O)N[C@@H](CC(=O)O)C(=O)N[C@H](C)C(=O)N[C@@H](CC(=O)O)C(=O)NCC(=O)N[C@H](CO)C(=O)N[C@@H]([C@H](C)CC(=O)O)C(=O)N[C@@H](CC(=O)c2ccccc2N)C(=O)O[C@@H]1C [Compound 1] here
2
